Assign screen value to each entry below.
B1: AZIN2 peptide 1-16 (Antizyme inhibitor 2), 16-mer library wild type / NSP3 ADRP (ORF1ab Nsp3b ADRP, residues 1023-1192) (parent)
chain 1: MAGYLSESDFVMVEEG
chain 2: not shown

variants of: B1; settings: with NSP3 ADRP (ORF1ab Nsp3b ADRP, residues 1023-1192); bait immobilised on MaxiSorp plates (10 µg), library pre-cleared on GST, 2 h binding at 4 °C, five washes; one round per day, days 1-4; value from days 2 and 3; keep out of graded; scale: average fractional NGS count over selection days 2 and 3
One number for each entry.

// known answers, use as guide
mutationstring="chain 1 D9I" propertylabel="screen value" reported=2.23e-05
mutationstring="chain 1 S8Q" propertylabel="screen value" reported=2.27e-05
mutationstring="chain 1 S6G" propertylabel="screen value" reported=0

Please look at the items below and tell me screen value for each one, in order.
1. chain 1 M12K
2. chain 1 D9A
3. chain 1 E15A
4. chain 1 S8N
5. chain 1 E14V
6. chain 1 G3T
7. chain 1 M12G
8. chain 1 V13E

Reply |
0
1.5e-05
1.82e-05
5.33e-05
1.13e-05
0
0
4.94e-05
